system: SEM cells; test: cell viability relative to DMSO control; higher = less cytotoxic; conditions: RPMI 5 mM glucose + 10% FBS; 48 h; 0.000781 µM
experimental_readout: cell viability

>  <smiles_representation>
NCCc1ccc(O)c(O)c1

>  <result_value>
113%

$$$$
>  <smiles_representation>
CN1CCN(CCCN2c3ccccc3Sc3ccc(Cl)cc32)CC1.O=C(O)/C=C\C(=O)O.O=C(O)/C=C\C(=O)O

>  <result_value>
102%

$$$$
>  <smiles_representation>
CN(C)CCOc1ccc(/C(=C(/CCCl)c2ccccc2)c2ccccc2)cc1

>  <result_value>
54.5%

$$$$
>  <smiles_representation>
N#Cc1ccnc(N2C(=O)CC[C@H]2C(=O)N(c2cncc(F)c2)[C@H](C(=O)NC2CC(F)(F)C2)c2ccccc2Cl)c1

>  <result_value>
119%

$$$$
>  <smiles_representation>
CO[C@@H]1[C@@H](O)[C@H](O)[C@@H](n2c3c(Cl)cccc3c3c4c(c5c6cccc(Cl)c6[nH]c5c32)C(=O)NC4=O)O[C@H]1CO

>  <result_value>
137%

$$$$
>  <smiles_representation>
Oc1ccc2ccccc2c1SSc1c(O)ccc2ccccc12

>  <result_value>
104%

$$$$

###

Below, each entry is listed with its recorded cell viability.
system: SEM cells; experiment: cell viability relative to DMSO control; higher = less cytotoxic; conditions: HPLM + 10% dialyzed FBS; 48 h; 0.0632 µM
experimental_readout: cell viability (%)

>  <smiles_representation>
COc1cc2c(Nc3ccc(Cl)c(Cl)c3F)ncnc2cc1OC[C@@H]1C[C@@H]2CN(C)C[C@@H]2C1

>  <unit_tag>
%

>  <result_value>
94.5

$$$$
>  <smiles_representation>
Cc1nc(N)ncc1-c1nc(N2CCOCC2)c2sc(C(C)(C)O)cc2n1

>  <unit_tag>
%

>  <result_value>
113

$$$$
>  <smiles_representation>
COc1cc(OC)c(C(=O)CCCN2CCCC2)c(OC)c1

>  <unit_tag>
%

>  <result_value>
115

$$$$
>  <smiles_representation>
COc1cc(Cl)cn2c(-c3cccc(NC4CNC4)n3)cnc12

>  <unit_tag>
%

>  <result_value>
133

$$$$

###

Below, each entry is listed with its recorded cell viability.
test system: SEM cells; experiment: cell viability relative to DMSO control; higher = less cytotoxic; conditions: HPLM + 10% dialyzed FBS; 48 h; 0.00234 µM
experimental_readout: cell viability (%)

>  <compound>
Clc1ccc2ncc(-c3cccc(NC4CNC4)n3)n2c1

>  <study_target>
SEM cells

>  <experimental_readout>
cell viability

>  <result_value>
121

$$$$
>  <compound>
CC(C)(Sc1ccc(CCN(CCCCC2CCCCC2)C(=O)NC2CCCCC2)cc1)C(=O)O

>  <study_target>
SEM cells

>  <experimental_readout>
cell viability

>  <result_value>
105

$$$$
>  <compound>
C[C@@H]1C(=O)OC2[C@H](O)[C@]34[C@H]5C[C@@H](C(C)(C)C)[C@]36[C@@H](OC(=O)[C@@H]6O)O[C@@]4(C(=O)O5)[C@]21O (some centres not stated)

>  <study_target>
SEM cells

>  <experimental_readout>
cell viability

>  <result_value>
102

$$$$
>  <compound>
CC[C@H]1OC(=O)[C@H](C)[C@@H](O[C@H]2C[C@@](C)(OC)[C@@H](O)[C@H](C)O2)[C@H](C)[C@@H](O[C@@H]2O[C@H](C)C[C@H](N(C)C)[C@H]2O)[C@](C)(O)C[C@@H](C)CN(C)[C@H](C)[C@@H](O)[C@]1(C)O

>  <study_target>
SEM cells

>  <experimental_readout>
cell viability

>  <result_value>
122

$$$$
>  <compound>
COC1=CC=C2[N](CCCN(C)C)C=C(C2=C1)C/3=C(/C(=O)NC3=O)C4=C[NH]C5=C4C=CC=C5

>  <study_target>
SEM cells

>  <experimental_readout>
cell viability

>  <result_value>
123

$$$$
>  <compound>
CCOC(=O)[C@@H](N)CCC(=O)N[C@@H](CSCc1ccccc1)C(=O)N[C@@H](C(=O)OCC)c1ccccc1

>  <study_target>
SEM cells

>  <experimental_readout>
cell viability

>  <result_value>
105

$$$$
>  <compound>
CC(C)c1c(C(=O)Nc2ccccc2)c(-c2ccccc2)c(-c2ccc(F)cc2)n1CC[C@@H](O)C[C@@H](O)CC(=O)[O-]

>  <study_target>
SEM cells

>  <experimental_readout>
cell viability

>  <result_value>
117

$$$$
>  <compound>
NCCc1ccc(O)c(O)c1

>  <study_target>
SEM cells

>  <experimental_readout>
cell viability

>  <result_value>
137

$$$$
>  <compound>
Cc1nc(N)ncc1-c1nc(N2CCOCC2)c2sc(C(C)(C)O)cc2n1

>  <study_target>
SEM cells

>  <experimental_readout>
cell viability

>  <result_value>
114

$$$$
>  <compound>
COc1cc2ncnc(Nc3cccc(Cl)c3)c2cc1OC

>  <study_target>
SEM cells

>  <experimental_readout>
cell viability

>  <result_value>
112

$$$$
>  <compound>
Clc1ccccc1C(c1ccccc1)(c1ccccc1)n1ccnc1

>  <study_target>
SEM cells

>  <experimental_readout>
cell viability

>  <result_value>
114

$$$$
>  <compound>
CN1CCN(CCCN2c3ccccc3Sc3ccc(Cl)cc32)CC1.O=C(O)/C=C\C(=O)O.O=C(O)/C=C\C(=O)O

>  <study_target>
SEM cells

>  <experimental_readout>
cell viability

>  <result_value>
112

$$$$
>  <compound>
CN(C)CCc1c[nH]c2ccc(C[S+](=O)([O-])N3CCCC3)cc12

>  <study_target>
SEM cells

>  <experimental_readout>
cell viability

>  <result_value>
97.3

$$$$
>  <compound>
CC(C)(O)C(=O)Nc1ccc([N+](=O)[O-])c(C(F)(F)F)c1

>  <study_target>
SEM cells

>  <experimental_readout>
cell viability

>  <result_value>
107

$$$$
>  <compound>
O=C1N\C=N/C2=C1C=N[NH]2

>  <study_target>
SEM cells

>  <experimental_readout>
cell viability

>  <result_value>
77.4

$$$$
>  <compound>
NC\1=N\C(=O)N(\C=C1F)[C@H]2C[C@H](O)[C@@H](CO)O2

>  <study_target>
SEM cells

>  <experimental_readout>
cell viability

>  <result_value>
123

$$$$
>  <compound>
CC(C)Cn1cnc2c(N)nc3ccccc3c21

>  <study_target>
SEM cells

>  <experimental_readout>
cell viability

>  <result_value>
107

$$$$
